Target: human CB2R (Homo sapiens)
Construct: host or cells: CHO cells
Sequence (P34972 whole entry): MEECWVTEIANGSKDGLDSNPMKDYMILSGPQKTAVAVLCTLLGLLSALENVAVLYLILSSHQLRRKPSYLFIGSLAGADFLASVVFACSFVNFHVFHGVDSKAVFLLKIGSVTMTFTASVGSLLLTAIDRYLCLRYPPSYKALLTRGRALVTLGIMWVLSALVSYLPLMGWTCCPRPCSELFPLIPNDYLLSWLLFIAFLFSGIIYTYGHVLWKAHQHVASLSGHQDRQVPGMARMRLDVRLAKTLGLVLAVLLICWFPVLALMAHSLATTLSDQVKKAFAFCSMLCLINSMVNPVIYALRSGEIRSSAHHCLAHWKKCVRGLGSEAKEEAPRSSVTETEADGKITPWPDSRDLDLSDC
Test: CB2R mediated modulation of cAMP synthesis (forskolin-stimulated cAMP, CHO cells expressing human CB2R)
Assay type: cell-based
Measure: pEC50
Give only the number. pEC50 is defined as minus log10 of concentration in molar units.

Compound: CC(C)(C)c1cc(NC(=O)[C@@H]2CCCCN2CC2CCOCC2)sn1
Measure: pEC50
Experimental Result: 9.52

Compound: CC(C)(C)c1cc(NC(=O)[C@@H]2CCCCCN2CC2CCOCC2)no1
Measure: pEC50
Experimental Result: 10.52

Provide only the value of recorded pEC50 for `CC(C)(C)c1cc(NC(=O)[C@@H]2CCCCN2C(=O)C2CCC(F)(F)CC2)no1`
8.34
